Molecular target: T1, biotinylated goat anti-human kappa light chain
T1 construct: Positive control of the ELISA
Test: ELISA; positive control; further: test concentration or dose not given here
// optical density lookup, one value per entry
Note: a bare number is incomplete; add the unit.

Some binders with known optical density results, for comparison:
Sure, the documented optical density for 375_D07 (antibody, V domains shown, VH/VL only) VH: EVQLLESGGGLVQPGGSLRLSCAASGFTFSSYGMNWVRQAPGKGLEWVANINYNSGYTGYADSVKGRFTISRDNSKNTLYLQMNSLRAEDTAVYYCARSANWHDTALDYWGQGTLVTVSS VL: DIQMTQSPSSLSASVGDRVTITCRASQSIITYLNWYQQKPGKAPKLLIYAATSRASGVPSRFSGSGSGTDFTLTISSLQPEDFATYYCQQSYDTPLTFGGGTKVEIK is 3.25 OD

Value of measured optical density for the entry 374_H04 (antibody, V domains shown, VH/VL only) VH: EVQLLESGGGLVQPGGSLRLSCAASGFTFDSYSMNWVRQAPGKGLEWVSGINYNSGYTSYADSVKGRFTISRDNSKNTLYLQMNSLRAEDTAVYYCARSANWHDTALDYWGQGTLVTVSS VL: DIQMTQSPSSLSASVGDRVTITCRASQSILTYLNWYQQKPGKAPKLLIYAATSRASGVPSRFSGSGSGTDFTLTISSLQPEDFATYYCQQSYDNPLTFGGGTKVEIK : 3.19 OD

Next item in the queue.
The recorded optical density for 376_A06 (antibody, V domains shown, VH/VL only) VH: EVQLLESGGGLVQPGGSLRLSCAASGFTFDSYSMNWVRQAPGKGLEWVSGINYNSGYTSYADSVKGRFTISRDNSKNTLYLQMNSLRAEDTAVYYCARSATWHDTALDYWGQGTLVTVSS VL: DIQMTQSPSSLSASVGDRVTITCRASQSILSYLNWYQQKPGKAPKLVIYYVSNRASGVPSRFSGSGSGTDFTLTISSLQPEDFATYYCQQSYDNPLTFGGGTKVEIK is 3.16 OD

The values you see were collected from patent US20210380703A1.
